EC50, FRET short substrate assay: recorded values
Target: BACE1 ECD (as used in the enzyme activity assay) (UniProt P56817 22-457, limits assumed)
Sequence (P56817 22-457 limits assumed): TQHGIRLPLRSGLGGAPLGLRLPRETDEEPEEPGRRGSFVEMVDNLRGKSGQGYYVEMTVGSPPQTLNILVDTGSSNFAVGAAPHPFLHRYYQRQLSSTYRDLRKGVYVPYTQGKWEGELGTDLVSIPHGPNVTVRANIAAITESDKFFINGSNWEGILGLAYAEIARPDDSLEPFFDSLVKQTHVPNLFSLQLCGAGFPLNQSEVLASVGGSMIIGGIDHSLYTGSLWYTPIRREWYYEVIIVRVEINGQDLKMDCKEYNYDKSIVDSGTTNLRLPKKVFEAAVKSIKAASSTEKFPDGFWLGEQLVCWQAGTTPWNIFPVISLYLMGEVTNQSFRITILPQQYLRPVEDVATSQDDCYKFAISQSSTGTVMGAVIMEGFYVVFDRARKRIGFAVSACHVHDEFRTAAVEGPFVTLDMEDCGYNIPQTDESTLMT
Assay: cell-based or functional assay
Return type: number; implicit unit nM.

Task item: Would you mind telling me what EC50, FRET short substrate assay value was observed for 5888 (antibody, V domains shown) VH: QVQLVQSGAEVKKPGSSVKVSCKASGGTFWKYAISWVRQAPGQGLEWMGNIIPGFGTANYAQKFRGRVTITADESTSTAYMELSSLRSEDTAVYYCARSGGTKYGMLDVWGQGTMVTVSS VL: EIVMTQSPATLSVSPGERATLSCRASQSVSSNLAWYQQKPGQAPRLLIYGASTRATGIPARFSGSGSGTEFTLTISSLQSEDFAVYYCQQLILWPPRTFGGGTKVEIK ?
Reply: 0.602

Task item: // next record 5905 (antibody, V domains shown) VH: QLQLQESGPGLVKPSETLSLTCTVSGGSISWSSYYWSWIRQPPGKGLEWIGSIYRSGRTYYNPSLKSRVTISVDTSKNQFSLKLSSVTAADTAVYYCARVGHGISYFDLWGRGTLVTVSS VL: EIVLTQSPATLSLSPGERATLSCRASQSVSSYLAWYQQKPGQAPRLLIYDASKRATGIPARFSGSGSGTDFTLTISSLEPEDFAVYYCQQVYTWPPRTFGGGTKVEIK
Reply: 1.33

Task item: Please give the result for 5890 (antibody, V domains shown) VH: QVQLVQSGAEVKKPGSSVKVSCKASGGTFSSYAISWVRQAPGQGLEWMGNIIPGFGTANYAQKFQGRVTITADESTSTAYMELSSLRSEDTAVYYCARSGGTKYGMLDVWGQGTMVTVSS VL: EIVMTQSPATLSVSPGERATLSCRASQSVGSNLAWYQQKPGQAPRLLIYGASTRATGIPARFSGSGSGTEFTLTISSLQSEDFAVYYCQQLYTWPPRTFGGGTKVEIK too.
Reply: 32.4

Task item: Same read-out for 5897 (antibody, V domains shown) VH: QLQLQESGPGLVKPSETLSLTCTVSGGSISWSSYYWSWIRQPPGKGLEWIGSIYKSGRTYYNPSLKSRVTISVDTSKNQFSLKLSSVTAADTAVYYCARVGHGISYFDLWGRGTLVTVSS VL: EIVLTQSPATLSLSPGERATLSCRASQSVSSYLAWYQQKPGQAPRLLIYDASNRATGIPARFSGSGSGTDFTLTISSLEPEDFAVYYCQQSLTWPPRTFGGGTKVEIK ?
Reply: 0.528
